target: Serine/threonine-protein kinase pim-1 (Homo sapiens, UniProt P11309); assay: Inhibition of human PIM1 measured after 5 mins by ELISA relative to control; design: concentration or dose not given beside the values
The label depends only on inhibition: MET if it is at least 80%, NOT MET if it is smaller.

SAMPLE_SMILES | TESTED_SYSTEM | CLASS
COc1ccc(-c2cc(-c3cc4c(ccc5ccccc54)oc3=O)[nH]c(=O)c2C#N)cc1 | Serine/threonine-protein kinase pim-1 (Homo sapiens, UniProt P11309) | MET
COc1ccc(-c2cc(-c3cccs3)[nH]c(=O)c2C#N)cc1 | Serine/threonine-protein kinase pim-1 (Homo sapiens, UniProt P11309) | NOT MET
COc1ccc(-c2cc(-c3cccs3)nc(N)c2C#N)cc1 | Serine/threonine-protein kinase pim-1 (Homo sapiens, UniProt P11309) | NOT MET

====

target: Serine/threonine-protein kinase pim-1 (Homo sapiens, UniProt P11309); test: Inhibition of human PIM1 measured after 5 mins by ELISA relative to control; design: concentration or dose not given beside the values
PROPERTY_NAME: inhibition (%)

SAMPLE_SMILES | TEST_VALUE
N#Cc1c(-c2cccc3ccccc23)cc(-c2cc3c(ccc4ccccc43)oc2=O)nc1N | 61.5
N#Cc1c(-c2cccc3ccccc23)cc(-c2cc3c(ccc4ccccc43)oc2=O)[nH]c1=O | 79.5
N#Cc1c(-c2cccs2)cc(-c2cc3c(ccc4ccccc43)oc2=O)nc1N | 69.2
N#Cc1c(-c2cccs2)cc(-c2cccs2)nc1O | 84.8
N#Cc1c(-c2cccs2)cc(-c2cc3c(ccc4ccccc43)oc2=O)[nH]c1=O | 89
N#Cc1c(-c2cccc3ccccc23)cc(-c2cccs2)nc1N | 58.5
COc1ccc(-c2cc(-c3cc4c(ccc5ccccc54)oc3=O)nc(N)c2C#N)cc1 | 26
COc1cc2c(c(OC)c1OC)-c1ccc(OC)c(=O)cc1[C@@H](NC(C)=O)CC2 | 65.1
N#Cc1c(-c2cccc3ccccc23)cc(-c2ccc3ccccc3c2)nc1N | 86.5
N#Cc1c(-c2cccs2)cc(-c2cccs2)nc1N | 85

====

pIC50: −log10 of the molar value.
A short record of pIC50 observed with Serine/threonine-protein kinase pim-1 (Homo sapiens, UniProt P11309) follows.

SAMPLE_SMILES | pIC50
N#Cc1c(-c2cccc3ccccc23)cc(-c2cccs2)[nH]c1=O | 5.32
COc1cc2c(c(OC)c1OC)-c1ccc(OC)c(=O)cc1[C@@H](NC(C)=O)CC2 | 5.37
N#Cc1c(-c2cccs2)cc(-c2cccs2)nc1O | 5.50
N#Cc1c(-c2cccs2)cc(-c2cc3c(ccc4ccccc43)oc2=O)[nH]c1=O | 6.03
N#Cc1c(-c2cccs2)cc(-c2cc3c(ccc4ccccc43)oc2=O)nc1N | 4.72
N#Cc1c(-c2cccc3ccccc23)cc(-c2ccc3ccccc3c2)nc1N | 5.94
